- target-or-system: 5'-AMP-activated protein kinase catalytic subunit alpha-1 (Homo sapiens) (UniProt Q13131);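 further: enzyme tested as the AMPK alpha1 beta1 gamma1 complex, values reported as mean percent inhibition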
- Sequence (Q13131 whole entry, looked up): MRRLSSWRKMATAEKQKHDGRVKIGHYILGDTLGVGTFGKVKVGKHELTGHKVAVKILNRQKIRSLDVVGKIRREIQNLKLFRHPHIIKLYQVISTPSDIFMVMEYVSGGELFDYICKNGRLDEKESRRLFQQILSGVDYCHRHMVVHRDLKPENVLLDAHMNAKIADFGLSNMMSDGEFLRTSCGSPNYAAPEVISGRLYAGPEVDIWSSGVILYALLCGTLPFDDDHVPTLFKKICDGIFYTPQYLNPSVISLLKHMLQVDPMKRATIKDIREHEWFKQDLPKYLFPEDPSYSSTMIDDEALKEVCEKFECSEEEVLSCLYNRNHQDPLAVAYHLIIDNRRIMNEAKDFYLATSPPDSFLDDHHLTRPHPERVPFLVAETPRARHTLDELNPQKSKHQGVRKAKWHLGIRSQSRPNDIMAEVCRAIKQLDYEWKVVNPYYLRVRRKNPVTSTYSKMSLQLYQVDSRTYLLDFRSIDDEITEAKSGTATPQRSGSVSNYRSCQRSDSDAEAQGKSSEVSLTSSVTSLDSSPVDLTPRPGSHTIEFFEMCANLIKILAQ
- stated-conditions: at 0.1 µM
- Description: GSK_PKIS: AMPKA1 (A1B1G1) mean inhibition at 0.1 uM [Nanosyn]
assay-endpoint: inhibition (%)

                                    compound  result_unit  observed_value
 0  C[C@@H](Oc1cc(-n2cnc3ccc(OC4CCN(C)CC4)cc32)sc1C(N)=O)c1ccccc1Cl            %            5.35
 1  O=C1NC(=O)C(c2cccc(Cl)c2)=C1Nc1ccc(Cl)c(C(=O)O)c1            %            3.69
 2  NS(=O)(=O)c1ccc(N/N=C2\C(=O)Nc3ccc(-c4cnco4)cc32)cc1            %            3.38
 3  COc1cccc(/C=N/Nc2ncnc3c2cnn3-c2cccc(OC)c2)c1            %            1.52
 4  CN(C)CCOc1ccc(-c2cc(-c3ccc4c(c3)CCC4=NO)c(-c3ccncc3)o2)cc1            %           -1.39
 5  COc1cc(C)c(N(C)C(=O)CN(C)C)cc1Nc1nc(Nc2cccc(F)c2C(N)=O)c2cc[nH]c2n1            %            1.44
 6  Fc1ccc(-c2ncn(CCCN3CCOCC3)c2-c2ccncc2)cc1            %            0.37
 7  COc1ccc2cc(-c3c(-c4ccncc4)nc(-c4ccc([S+](C)[O-])cc4C)n3C)ccc2c1 (stereo not given)            %           -0.62
 8  COc1cc(Nc2ncc3c(C)nc(-c4cccc(C(F)(F)F)c4)n3n2)cc(OC)c1OC            %            6.54
 9  CCS(=O)(=O)c1ccc(OC)c(Nc2ncc(-c3ccccc3Cl)o2)c1            %            1.54
10  C[C@@H](Oc1cc(-n2cnc3ccc(OCC4CCN(C)CC4)cc32)sc1C(N)=O)c1ccccc1Cl            %            6.05
11  C/C(Nc1ccc(S(N)(=O)=O)cc1)=C1/C(=O)Nc2ccccc21            %            1.16
12  Fc1ccc(-c2ncn(C3CCNCC3)c2-c2ccnc(Oc3ccc4c(c3)OCO4)n2)cc1            %            2.72
13    Clc1ccc(CNc2nccc(-c3cnn4ncccc34)n2)cc1            %           -0.21
14  NS(=O)(=O)c1ccc(Nc2cc(-c3ccc(O)c(F)c3)n[nH]2)cc1            %            0.53
15  CN(C)c1ccc2c(c1)/C(=C/Nc1ccc(S(N)(=O)=O)cc1)C(=O)N2            %            10.2
16  Cc1ccc(C(=O)NC(C)C)cc1-c1ccc(C(=O)NCC2CC2)cc1            %           -1.19
17  COc1cc2ncn(-c3cc(OCCc4ccccc4)c(C(N)=O)s3)c2cc1OC            %            2.79
18  Cc1ccc(NC(=O)c2ccoc2)cc1-c1ccc(C(=O)NCC2CC2)cc1            %            0.17
19  CS(=O)(=O)CCNCc1ccc(-c2ccc3ncnc(Nc4ccc(OCc5ccccc5)c(Br)c4)c3c2)o1            %            2.94

----------
Property: inhibition; scope: individual molecules
- target-or-system: Tyrosine-protein kinase ZAP-70 (Homo sapiens) (UniProt P43403);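 further: values are mean percent inhibition of ZAP-70 kinase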
- Sequence (P43403 whole entry): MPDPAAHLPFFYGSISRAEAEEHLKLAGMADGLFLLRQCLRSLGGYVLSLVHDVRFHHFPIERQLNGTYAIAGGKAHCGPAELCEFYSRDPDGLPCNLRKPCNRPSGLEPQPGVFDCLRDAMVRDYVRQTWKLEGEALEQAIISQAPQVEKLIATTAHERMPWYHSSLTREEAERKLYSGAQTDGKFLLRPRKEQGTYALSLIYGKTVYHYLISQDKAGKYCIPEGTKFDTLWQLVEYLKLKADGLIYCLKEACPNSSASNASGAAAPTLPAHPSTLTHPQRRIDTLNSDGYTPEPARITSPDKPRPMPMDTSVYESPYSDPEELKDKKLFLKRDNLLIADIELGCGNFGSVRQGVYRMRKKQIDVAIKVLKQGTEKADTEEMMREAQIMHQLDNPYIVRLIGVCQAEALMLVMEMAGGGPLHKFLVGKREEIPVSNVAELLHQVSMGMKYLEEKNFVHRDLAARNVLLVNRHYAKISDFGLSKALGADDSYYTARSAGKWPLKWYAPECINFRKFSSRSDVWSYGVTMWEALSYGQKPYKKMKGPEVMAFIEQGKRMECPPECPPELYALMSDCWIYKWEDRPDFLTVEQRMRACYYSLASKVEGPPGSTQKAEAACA
- stated-conditions: at 0.1 µM
assay-endpoint: inhibition (%)

>>> print(df.to_string())
                                chem_smiles                          target_or_system  result_unit  observed_value
0  COC(=O)Nc1nc2ccc(Sc3ccc(NC(=O)Nc4cc(C(F)(F)F)ccc4F)cc3)cc2[nH]1  Tyrosine-protein kinase ZAP-70 (Homo sapiens) (UniProt P43403)            %            3.14
1  COc1ccc2cc(-c3c(-c4ccncc4)nc(-c4ccc(S(C)(=O)=O)cc4C)n3C)ccc2c1  Tyrosine-protein kinase ZAP-70 (Homo sapiens) (UniProt P43403)            %           -0.34
2  COc1cc2ncn(-c3cc(OCc4cccs4)c(C(N)=O)s3)c2cc1OC  Tyrosine-protein kinase ZAP-70 (Homo sapiens) (UniProt P43403)            %           -0.46
3  COc1cc(N2CCN(C(C)C)CC2)ccc1Nc1nc(Nc2ccc(F)cc2C(=O)NC[C@@H](O)CO)c2cc[nH]c2n1  Tyrosine-protein kinase ZAP-70 (Homo sapiens) (UniProt P43403)            %           -0.52
4  NC(=O)c1ccc(Oc2nccc(-c3c(-c4ccc(F)cc4)ncn3C3CCNCC3)n2)cc1  Tyrosine-protein kinase ZAP-70 (Homo sapiens) (UniProt P43403)            %            2.59
5  O=C(Nc1ccc(Oc2ccc3[nH]c(NC(=O)c4ccccc4)nc3c2)cc1)Nc1cc(C(F)(F)F)ccc1F  Tyrosine-protein kinase ZAP-70 (Homo sapiens) (UniProt P43403)            %           -1.74
6  C/C(Nc1ccc(S(N)(=O)=O)cc1)=C1/C(=O)Nc2ccccc21  Tyrosine-protein kinase ZAP-70 (Homo sapiens) (UniProt P43403)            %           -2.58
7  CS(=O)(=O)CCNCc1cc(-c2cc3c(Nc4ccc(OCc5cccc(F)c5)c(Cl)c4)ncnc3s2)cs1  Tyrosine-protein kinase ZAP-70 (Homo sapiens) (UniProt P43403)            %            2.63
8  O=C1NC(=O)C(c2cccc(Cl)c2)=C1Nc1ccc(Cl)c(C(=O)O)c1  Tyrosine-protein kinase ZAP-70 (Homo sapiens) (UniProt P43403)            %            4.89

----------
- target-or-system: Receptor-type tyrosine-protein kinase FLT3 (Homo sapiens);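 further: values are mean percent inhibition of FLT3 kinase activity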
- stated-conditions: at 1 µM
Overview of recorded inhibition for various molecules
assay-endpoint: inhibition (%)

                                    molecule                          target_or_system  observed_value
 0  c1ccc(Oc2ccc(Nc3ncc(-c4ccccc4)o3)cc2)cc1  Receptor-type tyrosine-protein kinase FLT3 (Homo sapiens)            13.3
 1  COc1cc2ncn(-c3cc(OCc4ccccc4C(F)(F)F)c(C(C)=O)s3)c2cc1OC  Receptor-type tyrosine-protein kinase FLT3 (Homo sapiens)            5.32
 2  NS(=O)(=O)c1ccc(Nc2cc(-c3ccc(O)c(F)c3)n[nH]2)cc1  Receptor-type tyrosine-protein kinase FLT3 (Homo sapiens)            79.4
 3              CCc1nccc2c1nc(-c1nonc1N)n2CC  Receptor-type tyrosine-protein kinase FLT3 (Homo sapiens)            0.33
 4  Fc1ccc(-c2ncn(CCCN3CCOCC3)c2-c2ccncc2)cc1  Receptor-type tyrosine-protein kinase FLT3 (Homo sapiens)            1.49
 5  C/C(Nc1ccc(S(N)(=O)=O)cc1)=C1/C(=O)Nc2ccccc21  Receptor-type tyrosine-protein kinase FLT3 (Homo sapiens)            62.9
 6  Cc1ccc(NC(=O)c2ccoc2)cc1-c1ccc(C(=O)NCC2CC2)cc1  Receptor-type tyrosine-protein kinase FLT3 (Homo sapiens)             0.9
 7    O=C(Nc1n[nH]c2cc(-c3ccccc3)ccc12)C1CC1  Receptor-type tyrosine-protein kinase FLT3 (Homo sapiens)            2.82
 8  Nc1nccc(-c2c(-c3ccc(F)cc3)ncn2C2CCC(O)CC2)n1 (stereo unspecified)  Receptor-type tyrosine-protein kinase FLT3 (Homo sapiens)           -0.14
 9  COc1cc2ncn(-c3cc(OCCc4ccccc4)c(C(N)=O)s3)c2cc1OC  Receptor-type tyrosine-protein kinase FLT3 (Homo sapiens)            7.46
10     COc1cc(Nc2ncc(-c3ccccc3)o2)cc(OC)c1OC  Receptor-type tyrosine-protein kinase FLT3 (Homo sapiens)            90.8

Reference source: ChEMBL document CHEMBL1961873
